conditions: in isobutanol, 298.15 K

| compoundSmiles | solubility (mole fraction) |
| --- | --- |
| NC(=O)c1ccccc1 | 0.0416 |

====

conditions: in n-butyl acetate, 283.15 K

| compoundSmiles | solubility (mole fraction) |
| --- | --- |
| NC(=O)c1ccccc1 | 0.0176 |

====

settings: in water, 293.15 K
readoutLabel: solubility (mole fraction)

| compoundSmiles | val |
| --- | --- |
| NC(=O)c1ccccc1 | 0.0017 |

====

conditions: in isopropanol, 323.15 K

| compoundSmiles | solubility (mole fraction) |
| --- | --- |
| NC(=O)c1ccccc1 | 0.111 |

====

conditions: in n-propanol, 283.15 K
readoutLabel: solubility (mole fraction)

| compoundSmiles | val |
| --- | --- |
| NC(=O)c1ccccc1 | 0.0329 |

====

settings: in acetonitrile, 293.15 K

| compoundSmiles | solubility (mole fraction) |
| --- | --- |
| NC(=O)c1ccccc1 | 0.0231 |

====

conditions: in n-propanol, 313.15 K
readoutLabel: solubility (mole fraction)

| compoundSmiles | val |
| --- | --- |
| NC(=O)c1ccccc1 | 0.0891 |

====

settings: in isobutanol, 318.15 K

| compoundSmiles | solubility (mole fraction) |
| --- | --- |
| NC(=O)c1ccccc1 | 0.0786 |

====

details: in n-propanol, 288.15 K

| compoundSmiles | solubility (mole fraction) |
| --- | --- |
| NC(=O)c1ccccc1 | 0.0398 |

====

conditions: in isopropanol, 303.15 K

| compoundSmiles | solubility (mole fraction) |
| --- | --- |
| NC(=O)c1ccccc1 | 0.0558 |

====

details: in isopropanol, 283.15 K
readoutLabel: solubility (mole fraction)

| compoundSmiles | val |
| --- | --- |
| NC(=O)c1ccccc1 | 0.0253 |

====

settings: in acetone, 323.15 K

| compoundSmiles | solubility (mole fraction) |
| --- | --- |
| NC(=O)c1ccccc1 | 0.174 |

====

conditions: in n-butyl acetate, 323.15 K

| compoundSmiles | solubility (mole fraction) |
| --- | --- |
| NC(=O)c1ccccc1 | 0.0525 |

====

conditions: in acetone, 293.15 K

| compoundSmiles | solubility (mole fraction) |
| --- | --- |
| NC(=O)c1ccccc1 | 0.0703 |

====

conditions: in methanol, 298.15 K

| compoundSmiles | solubility (mole fraction) |
| --- | --- |
| NC(=O)c1ccccc1 | 0.0917 |

====

conditions: in ethyl acetate, 318.15 K

| compoundSmiles | solubility (mole fraction) |
| --- | --- |
| NC(=O)c1ccccc1 | 0.0613 |

====

conditions: in ethyl acetate, 293.15 K

| compoundSmiles | solubility (mole fraction) |
| --- | --- |
| NC(=O)c1ccccc1 | 0.0279 |

====

details: in water, 298.15 K

| compoundSmiles | solubility (mole fraction) |
| --- | --- |
| NC(=O)c1ccccc1 | 0.00212 |

====

settings: in n-butanol, 318.15 K

| compoundSmiles | solubility (mole fraction) |
| --- | --- |
| NC(=O)c1ccccc1 | 0.0933 |

====

conditions: in methyl acetate, 303.15 K

| compoundSmiles | solubility (mole fraction) |
| --- | --- |
| NC(=O)c1ccccc1 | 0.0476 |

Data credit: BigSolDB 2.1
